tgt: Muscarinic acetylcholine receptor M4 (Homo sapiens)
assay details: M4-linked GIRK flux change, two-sided – cell-based, HEK293 M4/GIRK, thallium flux, BTC-AM, M4 allosteric agonist project, primary screen (AID 625);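 note: thallium influx through GIRK channels coupled to M4 in HEK293 cells with BTC-AM dye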
condition notes: at 10 µM, actives lie on both sides
result type: fluorescence slope
Lab note: record just the number, no unit beside it.

Answer with reported fluorescence slope of Cc1ccc2c(c1C)NC(C)CC2C (stereo unspecified)
0.0052

Answer with reported fluorescence slope of Cn1c2ccccc2c2c(C(=O)NCCCN3CCCC3=O)cn(C3CCCCC3)c(=O)c21
0.00608

Answer with reported fluorescence slope of COC(=O)c1oc2ccc(OC)cc2c1N
0.00575

Answer with reported fluorescence slope of Cc1ccc(Nc2nc(CSc3nnnn3C)cs2)cc1
0.00561

Answer with reported fluorescence slope of c1cnn(-c2cc(N3CCOCC3)ncn2)c1
0.0047

Answer with reported fluorescence slope of Cc1ccc(NC(=O)c2oc3ccc(S(=O)(=O)N4CCOCC4)cc3c2C)cc1C
0.00768
